The entries below pair molecules with log10(IC50) values for Caspase-8 (Homo sapiens, UniProt Q14790), as found in several publications.
Quantity: log10(IC50) (log10 of the value in nM)

INSERT INTO assay_data (smiles_str, value_reported) VALUES
  ('O=C(O)C[C@H](NC(=O)CN1CCN(Cc2ccccc2)CC1=O)C(=O)COc1c(F)c(F)cc(F)c1F', 1.45),
  ('C[C@H](NC(=O)c1coc(-c2ccccc2)n1)C(=O)N[C@@H](CC(=O)O)C(=O)COc1c(F)c(F)cc(F)c1F', 1.48),
  ('C[C@H](NC(=O)c1c[nH]c(-c2ccccc2)n1)C(=O)N[C@@H](CC(=O)O)C(=O)COc1c(F)c(F)cc(F)c1F', 1.41),
  ('O=C(O)C[C@H](NC(=O)CN1CCN(Cc2ccccc2)C(=O)C1)C(=O)COc1ccnc(C(F)(F)F)n1', 2.60),
  ('C[C@H](NC(=O)c1cc(-c2ccccc2C(F)(F)F)on1)C(=O)N[C@@H](CC(=O)O)C(=O)COc1c(F)c(F)cc(F)c1F', 1.35),
  ('O=C(O)C[C@H](NC(=O)CN1CCN(Cc2ccccc2)C(=O)C1)C(=O)COc1c(F)c(F)cc(F)c1F', 2.12),
  ('C[C@H](NC(=O)c1cc(-c2ccccc2Cl)on1)C(=O)N[C@@H](CC(=O)O)C(=O)COc1c(F)c(F)cc(F)c1F', 1.01),
  ('C[C@H](NC(=O)c1cc(-c2ccccc2)on1)C(=O)N[C@@H](CC(=O)O)C(=O)COc1c(F)c(F)cc(F)c1F', 1.37),
  ('C[C@H](NC(=O)c1ncc(-c2ccccc2)s1)C(=O)N[C@@H](CC(=O)O)C(=O)COc1c(F)c(F)cc(F)c1F', 1.39),
  ('C[C@H](NC(=O)c1cc(-c2ccccc2F)on1)C(=O)N[C@@H](CC(=O)O)C(=O)COc1c(F)c(F)cc(F)c1F', 1.25);
